test: TNF-a-driven NF-kB reporter inhibitors, primary screen, selectivity assay for NOD1/NOD2 signaling inhibitor project, cell-based, HEK293T NF-kB-Luc, luminescence (AID 1852); conditions: TNF-a induced, 14 h, at 4 µM, stronger effect = higher value
Among all 2,500 compounds or so, about 1,100 (44%) were called active. The set was probably picked from earlier hits. Some of the results follow.
Note to self: values exactly at 20% are yes (1). So inhibition at or above 20% is yes (1), below is no (0).

COc1ccccc1OCC(=O)OC/C(O)=C(\C#N)c1nc2ccccc2[nH]1 ... yes (1)
CC(=O)N1c2ccc(S(=O)(=O)N3CCC(C(=O)Nc4cccc(C)n4)CC3)cc2CC1C (stereo not given) ... yes (1)

Q: Dear colleague, could you confirm whether CCOC(=O)c1ccc(NC(=O)c2ccc(C)c(S(=O)(=O)N3CCOCC3)c2)cc1 has inhibition at or above 20%?
Result: yes (1)

Q: Is inhibition for CCc1cccc(C)c1NS(=O)(=O)c1cccs1 at or above 20%?
Result: no (0)

Q: Is the recorded value of inhibition equal to or greater than 20% for this compound? Cc1cccc(C)c1OCC(=O)OC/C(O)=C(\C#N)c1nc2ccccc2[nH]1
Result: yes (1)

Q: Reported inhibition reaches at least 20% for CC(C)NC(=O)c1ccc(Sc2ccccc2)c([N+](=O)[O-])c1 ?
Result: no (0)

Q: Identify whether the reported inhibition of the following compound is 20% or greater: O=S(=O)(Nc1cccc2ncccc12)c1cccs1
Result: yes (1)

Q: Is the recorded value of inhibition equal to or greater than 20% for this compound? Cn1cnnc1Sc1ccc(/C=C/C(=O)c2ccc(O)cc2)cc1[N+](=O)[O-]
Result: no (0)

Q: Does the compound COc1ccc(C2C(C(=O)N3CCOCC3)CCC(=O)N2c2ccc(OC)cc2)cc1 (stereo not given) have recorded inhibition that is 20% or more?
Result: no (0)

Q: Assess whether reported inhibition for Cc1ccc(S(=O)(=O)Nc2cccc3ncccc23)s1 sits at 20% or higher.
Result: yes (1)
